Consider the following molecules; for each one, report its log10 of Ki.
# assayedTarget: PKC-δ (Homo sapiens, UniProt Q05655)
# Construct: purchased Invitrogen (Sinobiological for the SUW402 experiment)
# Sequence (Q05655 whole entry): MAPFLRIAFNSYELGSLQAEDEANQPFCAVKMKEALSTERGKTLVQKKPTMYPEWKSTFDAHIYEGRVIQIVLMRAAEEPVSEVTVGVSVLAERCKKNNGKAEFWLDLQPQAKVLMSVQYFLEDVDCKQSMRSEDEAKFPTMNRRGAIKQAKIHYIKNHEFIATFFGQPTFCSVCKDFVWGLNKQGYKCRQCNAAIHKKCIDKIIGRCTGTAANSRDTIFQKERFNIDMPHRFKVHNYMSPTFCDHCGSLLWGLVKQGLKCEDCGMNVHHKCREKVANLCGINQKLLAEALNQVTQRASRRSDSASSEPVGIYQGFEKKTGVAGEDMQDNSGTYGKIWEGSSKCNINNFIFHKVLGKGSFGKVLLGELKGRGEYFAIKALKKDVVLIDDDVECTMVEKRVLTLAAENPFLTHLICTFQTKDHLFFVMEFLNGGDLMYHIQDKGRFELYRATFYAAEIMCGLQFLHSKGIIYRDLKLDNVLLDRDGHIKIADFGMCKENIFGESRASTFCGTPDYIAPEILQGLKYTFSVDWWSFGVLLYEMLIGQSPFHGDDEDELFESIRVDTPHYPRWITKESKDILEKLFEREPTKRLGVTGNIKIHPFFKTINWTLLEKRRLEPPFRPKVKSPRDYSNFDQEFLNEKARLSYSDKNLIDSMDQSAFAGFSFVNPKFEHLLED
# testSummary: Cell-free PKC competition binding assay against 3H-PDBu
# protocolConditions: HotNM 2.5; HotKdNM 0.62; supplement fit; read-out: Ki (best-fit value), PKC-δ
Recall that a logarithmic scale is used here: each number is log10 of Ki in µM.

A selection of reference data follows.
molecule	quantitativeResult
C/C=C(\C)C(=O)O[C@@H]1[C@@H](C)[C@@]2(O)[C@H]([C@@H]3C(C)(C)[C@]13OC(=O)c1ccccc1)[C@@H]1O[C@]1(CO)[C@@H](O)[C@]1(O)C(=O)C(C)=C[C@H]12	-1.19
CC[C@H](C)C(=O)O[C@@]12[C@H](OC(C)(C)C)[C@@H](C)[C@@]3(O)[C@H]([C@@H]1C2(C)C)[C@@H]1O[C@]1(CO)[C@@H](O)[C@]1(O)C(=O)C(C)=C[C@H]13	-1.22
C/C=C(\C)C(=O)O[C@@H]1[C@@H](C)[C@@]2(O)[C@H]([C@@H]3C(C)(C)[C@]13OC(=O)N1CCCC1)[C@@H]1O[C@]1(CO)[C@@H](O)[C@]1(O)C(=O)C(C)=C[C@H]12	-0.71
C/C=C(\C)C(=O)O[C@@H]1[C@@H](C)[C@@]2(O)[C@H]([C@@H]3C(C)(C)[C@]13OC(=O)[C@@H](C)CC)[C@@H]1O[C@]1(CO)[C@@H](O)[C@]1(O)C(=O)C(C)=C[C@H]12 [EBC-46, Tigilanol tiglate]	-2.49
C/C=C(\C)C(=O)O[C@@H]1[C@@H](C)[C@@]2(O)[C@H]([C@@H]3C(C)(C)[C@]13OC(=O)C1CCC1)[C@@H]1O[C@]1(CO)[C@@H](O)[C@]1(O)C(=O)C(C)=C[C@H]12	-2.12

Take each entry in turn and give its log10 of Ki.
1. C/C=C(\C)C(=O)O[C@@H]1[C@@H](C)[C@]2(O)[C@@H]3C=C(C)[C@H](OC(=O)C=C(C)C)[C@@]3(O)[C@H](O)C(CO)=C[C@H]2[C@@H]2C(C)(C)[C@]12OC(=O)[C@@H](C)CC
2. CC=C(C)C(=O)OC1C(C)C2(O)C(C3OC3(CO)CC3(O)C(=O)C(C)=CC32)C2C(C)(C)C12OC(=O)C(C)CC (stereo not shown)
3. C/C=C(\C)C(=O)O[C@@H]1[C@@H](C)[C@@]2(O)[C@H]([C@@H]3C(C)(C)[C@]13OC(=O)[C@H](C)CC)[C@@H]1O[C@]1(CO)[C@@H](O)[C@]1(O)C(=O)C(C)=C[C@H]12
4. C/C=C(\C)C(=O)O[C@@H]1[C@@H](C)[C@]2(O)[C@@H]3C=C(C)[C@H](OC(=O)c4ccccc4)[C@@]3(O)[C@H](O)C(CO)=C[C@H]2[C@@H]2C(C)(C)[C@]12OC(=O)[C@@H](C)CC
5. CC[C@H](C)C(=O)O[C@@]12[C@H](OC(=O)N3CCCC3)[C@@H](C)[C@@]3(O)[C@H]([C@@H]1C2(C)C)[C@@H]1O[C@]1(CO)[C@@H](O)[C@]1(O)C(=O)C(C)=C[C@H]13

[-2.33, -1.67, -2.43, -2.52, -0.76]
